// Fatty-acid amide hydrolase 1 (Homo sapiens, UniProt O00519) IC50 records
observedProperty: IC50

[[record]]
compound = "CCCCCCCCCCCCCCNC(=O)Oc1cccc(-c2cncc(-c3nnco3)c2)c1"
observedproperty = "IC50"
reported = "< 20 nM"

[[record]]
compound = "O=Cc1cncc(-c2cccc(OC(=O)NC3CCCCC3)c2)c1"
observedproperty = "IC50"
reported = "1000 nM"

[[record]]
compound = "CN(C(=O)Oc1cccc(-c2cncc(-c3nnco3)c2)c1)C1CCCCCC1"
observedproperty = "IC50"
reported = "> 1000 nM"

[[record]]
compound = "CCCCCCCCCCCCCCNC(=O)Oc1cccc(-c2cncc(C(=O)NO)c2)c1"
observedproperty = "IC50"
reported = "< 10 nM"

[[record]]
compound = "CN(C)c1ccc(OC(=O)NC2CCCC2)cc1-c1cncc(-c2nnco2)c1"
observedproperty = "IC50"
reported = "> 1000 nM"

